test system: SR; experiment: NCI tumour cell line growth inhibition, 48 h
Activity calls are given as the source filed them. No stated cut-off is given here; in the data, active = GI50 up to about 1.1 µM and inactive = higher.
measurement kind: GI50

[ask] Quick one: GI50 of COC(=O)[C@H](COC(C)(C)C)NC(=O)N[C@H](C)c1ccccc1 ?
[reply] > 100 µM (inactive)

[ask] So what's the measured GI50 for this one? COC(=O)[C@H](Cc1c[nH]c2ccccc12)NC(=O)c1ccc(CNC(=O)/C=C/c2cccc(Oc3ccccc3)c2)cc1
[reply] 22.4 µM (inactive)

[ask] State the recorded GI50 for this entry: CC(=O)Nc1ccc(-c2nnc(SCC(=O)Nc3cccc([N+](=O)[O-])c3)o2)cc1
[reply] 2.87 µM (inactive)

[ask] Which GI50 is listed for COC(=O)C1=CC(O)CCC1c1ccc(OC)cc1 (centres undefined) ?
[reply] > 100 µM (inactive)

[ask] Can you share its GI50? I mean this compound: COc1ccc(-n2c(SC(CN3CCOCC3)CN3CCCC3=O)nc3ccccc3c2=O)cc1 (centres undefined)
[reply] > 100 µM (inactive)

[ask] // query GI50 value for entry CC(C)(C)OC(=O)NC(Cc1ccc(OCc2ccccc2)cn1)C(N)=O (centres undefined)
[reply] > 100 µM (inactive)

[ask] Consider the compound Cc1ncc(CSc2ccccc2N)c(CO)c1O and give its measured GI50.
[reply] > 100 µM (inactive)

[ask] So what's the measured GI50 for this one? CCCCC/C(C=O)=C\c1ccccc1
[reply] > 100 µM (inactive)

[ask] For the compound shown here, C=C1CC/C=C(\C)CCC[C@H](C)[C@@H](O)[C@@H]2OC(=O)C(=C)[C@@H]2C[C@H]1O , give the reported GI50.
[reply] 4.83 µM (inactive)

[ask] GI50 lookup needed for O=CC(I)=C(c1ccccc1)c1ccccc1 , thanks.
[reply] 6.92 µM (inactive)

[ask] Name the recorded GI50 for O=S(=O)(O)c1ccc([Se][Se]c2ccc(S(=O)(=O)O)cc2)cc1 .
[reply] 27.9 µM (inactive)

[ask] I have this compound here, COc1ccc(/C=C2\N=C(c3ccccc3)OC2=O)cc1OC(C)=O , and I need its recorded GI50.
[reply] 15.2 µM (inactive)

[ask] Which measured GI50 value corresponds to CCOP(=O)(OCC)/C(=C/n1c(=S)[nH]c2ccccc21)C(=O)OC ?
[reply] > 100 µM (inactive)

[ask] Fill in the blank: the reported GI50 of Cc1ccc(NC(=O)CCc2nnc(S)[nH]2)cc1 is ____.
[reply] > 100 µM (inactive)

[ask] For the compound shown here, COc1ccc(C(C)NNC(=O)c2cc[n+]([BH2-]C#N)cc2)cc1F (centres undefined) , give the reported GI50.
[reply] > 100 µM (inactive)

[ask] Fill blank: measured GI50 of the compound CSC1(SC)CCCCCCCCCCC1 is ____.
[reply] 43.7 µM (inactive)

[ask] Which GI50 reading was recorded for the compound CCOC(=O)CCN1C(=O)C(=O)N(c2ccc(OC)cc2)C1=S ?
[reply] > 100 µM (inactive)

[ask] Give its GI50 value. Item: OC12c3ccccc3C1CCCCCCCCCC21OCCCO1 (centres undefined)
[reply] 4.73 µM (inactive)

[ask] GI50 lookup needed for COc1ccc2c3c1O[C@H]1C(=O)C=CC4(n5[nH]c(=O)n(-c6ccccc6)c5=O)C(C2)N(C)CCC314 (some centres undefined) , thanks.
[reply] > 100 µM (inactive)

###

system: A549; assay: NCI tumour cell line growth inhibition, 48 h
Activity calls are given as the source filed them. Rule as the data show it: active = GI50 up to about 1.1 µM and inactive = higher.
Returns: one label drawn from TRUE (active), FALSE (inactive)

[ask] State the result this test recorded for COc1cc(C2C(Cl)C(=O)N2n2cnc3ccccc3c2=O)cc(OC)c1OC (centres undefined) .
[reply] FALSE

[ask] Dear all, I need the recorded test outcome for O=C(/C=N/O)Nc1ccc(Cl)c(I)c1 , thank you.
[reply] FALSE

[ask] Which outcome was entered for the compound CCOC(=O)N1CC2(C)C=CC1C(C(=O)OC)C2 (centres undefined) in this test?
[reply] FALSE

[ask] Status in this test for O=S(=O)(CCC[C@H]1[C@@H](CCOCc2ccccc2)C2CCCN1O2)c1ccccc1 (some centres undefined) ?
[reply] FALSE

[ask] So what was the verdict on Cc1ccc(NC(=O)CCc2nnc(S)[nH]2)cc1 in this test?
[reply] FALSE

[ask] What did the test return for OC(CCNC12CC3CC(CC(C3)C1)C2)c1ccccc1 (centres undefined) ?
[reply] FALSE

[ask] How did this test come out for O/N=C1\CC2(N3CCOCC3)CCC1(c1ccccc1)CC2 ?
[reply] FALSE

[ask] What outcome does the record of this test show for O=C(O)c1ccc(Nc2nc3cc(C(F)(F)F)ccc3n3cccc23)cc1 ?
[reply] FALSE

[ask] Status in this test for CC(OC1CC(=O)CC2C(=O)C=CC(=O)C12)c1ccccc1 (centres undefined) ?
[reply] FALSE

[ask] Look up the recorded call for COc1c2cc(C(C)(C)C)cc1Cc1cccc(c1OCc1cccc([N+](=O)[O-])c1)Cc1cc(C(C)(C)C)cc(c1OC)Cc1cccc(c1OCc1cccc([N+](=O)[O-])c1)Cc1cc(C(C)(C)C)cc(c1OC)Cc1cccc(c1OCc1cccc([N+](=O)[O-])c1)C2 in this test.
[reply] FALSE

[ask] Assay result, entry O=C(NCc1ccccc1)c1cc2ccccc2o/c1=N\c1ccccc1F — outcome?
[reply] FALSE

[ask] Dear colleague, could you share the recorded outcome for Cc1ccc(NC(=O)/C(Cc2nc3ccc([N+](=O)[O-])cc3nc2O)=N\NC(=O)C[n+]2ccccc2)c(C)c1 when you have a moment?
[reply] FALSE

[ask] Called result for c1ccc(C2OCC(OC3CCCCO3)CO2)cc1 (centres undefined)
[reply] FALSE

[ask] Would you mind telling me which call this test gave CCCC(=O)NC(Nc1ccc(S(=O)(=O)Nc2ccc(OC)nn2)cc1)(C(F)(F)F)C(F)(F)F ?
[reply] FALSE

[ask] Name the outcome recorded for CN1CN(c2ccccc2)C2(CCN(CCc3csc4ccccc34)CC2)C1=O in the assay.
[reply] FALSE

[ask] Short answer needed: outcome of this test for CCN(CC)CCC(=O)c1ccccc1 ?
[reply] FALSE

[ask] What did the test return for Cc1nn(C(=O)CC(=O)Nc2ccccc2Cl)c(C)c1/N=N/c1ccccc1Cl ?
[reply] FALSE

[ask] Tell me the recorded outcome of this test for CC[C@H](C)[C@H]1NC(=O)[C@@H](NC(=O)[C@@H](CC(C)C)N(C)C(=O)C2CCCN2C(=O)[C@H](C)O)[C@@H](C)OC(=O)[C@H](Cc2ccccc2)N(C)C(=O)[C@@H]2CCCN2C(=O)[C@H](CC(C)C)NC(=O)[C@@H](C)C(=O)[C@H](C(C)C)OC(=O)C[C@@H]1O (some centres undefined) .
[reply] TRUE

[ask] State the result this test recorded for COC(=O)c1c(OC(C)=O)ccc2c1c1cc3ccccc3c(OC(C)=O)c1n2C .
[reply] FALSE

[ask] Outcome? O=C(Nc1ccc(Cl)cc1Cl)C1C(=O)C(=O)N(c2ccc(Cl)cc2Cl)C1=O (centres undefined)
[reply] FALSE

[ask] Kindly provide the recorded test outcome for the following compound: O=C([O-])C(O)C(O)C(O)C(O)C(=O)O.[K+] (centres undefined)
[reply] FALSE

[ask] # fetch the recorded call for O=C(N/C(=C\c1ccc([N+](=O)[O-])cc1)c1nc2ccccc2[nH]1)c1ccccc1 here
[reply] FALSE

[ask] // outcome(item) with item = O=C1OC(c2ccccc2)=N/C1=C/NC(Cc1ccc(O)cc1)C(=O)O (centres undefined)
[reply] FALSE

[ask] Check the results log: what was the call for Cc1nn(C(=O)c2ccccc2O)c2c1C(c1ccccc1)SC(=N)N2 (centres undefined) ?
[reply] TRUE

[ask] Assay result, entry C[C@@H](Oc1ccc(Oc2cnc3ccc(Cl)cc3n2)cc1)C(=O)O [R(+)XK469] — outcome?
[reply] FALSE

[ask] What was the test verdict on COc1cc(/C=C2\N=C(C)N(n3c(-c4ccccc4)nc4ccccc4c3=O)C2=O)cc(OC)c1OC ?
[reply] FALSE

[ask] Can you look up the reported call for NCCNCCNCc1c2ccccc2c(CNCCNCCN)c2ccccc12 for me?
[reply] FALSE

[ask] What was the test verdict on CCCCCCCCCCCCCCCCNc1cccc2ccccc12 ?
[reply] FALSE

[ask] Which outcome was entered for the compound CC(C)(C)c1c2c(c(C(C)(C)C)c3c1OCN(Cc1ccccc1)C3)OCN(Cc1ccccc1)C2 in this test?
[reply] FALSE

###

Please go through the items and note down their GI50.
system: SN12C; assay: NCI tumour cell line growth inhibition, 48 h
Calls of active or inactive are those of the source. No stated cut-off is given here; in the data, active = GI50 up to about 1.1 µM and inactive = higher.

[ask] If you can, please state the reported GI50 value of COc1cc(-c2ccccc2)cn2c1nc1ccccc12 .
[reply] 19.8 µM (inactive)

[ask] Which measured GI50 value corresponds to COc1cc2c(cc1OC)C(N(C)C)C(c1ccccc1)=C2Cl (centres undefined) ?
[reply] 18.7 µM (inactive)

[ask] Form field: reported GI50 of CN(CCN(C)C(=O)CCn1ccc(=O)[nH]c1=O)C(=O)CCn1ccc(=O)[nH]c1=O
[reply] > 100 µM (inactive)

[ask] So what's the measured GI50 for this one? COc1cc(C(=O)C/C(CCC(=O)Nc2ccccc2[N+](=O)[O-])=N\NC(=O)CC#N)ccc1O
[reply] > 100 µM (inactive)

Hey, just so you know, these numbers are from ChEMBL document CHEMBL1201862.
